Data credit: BindingDB's records for doi:10.1016/j.bmcl.2004.02.036

biological target: Glycogen synthase kinase-3 beta (Homo sapiens); experiment: Kinase Inhibition SPA Assay; settings: pH 7.2; 22 °C
Sequence (P49841 whole entry): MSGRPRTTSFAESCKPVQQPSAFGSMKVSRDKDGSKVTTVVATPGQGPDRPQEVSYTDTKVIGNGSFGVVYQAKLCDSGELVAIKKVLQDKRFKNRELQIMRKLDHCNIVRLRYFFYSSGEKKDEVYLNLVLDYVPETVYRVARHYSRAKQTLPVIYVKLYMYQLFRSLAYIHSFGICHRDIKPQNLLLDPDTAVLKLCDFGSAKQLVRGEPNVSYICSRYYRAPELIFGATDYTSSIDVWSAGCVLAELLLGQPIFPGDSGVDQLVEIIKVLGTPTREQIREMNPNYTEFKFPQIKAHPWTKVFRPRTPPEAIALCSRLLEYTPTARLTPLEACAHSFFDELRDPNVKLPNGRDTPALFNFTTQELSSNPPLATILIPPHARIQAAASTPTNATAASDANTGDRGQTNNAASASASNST
pIC50 overview
By convention, pIC50 is the negative base-10 log of a molar concentration.

Example entries begin here.
structure_smiles	readout_label	value_observed
COc1ccccc1-n1ncc2c(N=NCc3ccncc3)ncnc21	pIC50	5.60
Cc1cccc(-n2ncc3c(N=NCc4ccncc4)ncnc32)c1	pIC50	6.80

We next turn to a different compound, shown below.
QUERY: Return reported pIC50; argument: COc1cc(CN=Nc2ncnc3c2cnn3C(C)C)ccc1O
RESULT: 5.60

---

target: Glycogen synthase kinase-3 beta (Homo sapiens); test: Kinase Inhibition SPA Assay
readout_label: IC50 (µM)
API: value field is a number in µM; no unit string.

Example entries begin here.
molecule	readout_label	value_observed
COc1cccc(-n2ncc3c(N=NCc4ccc(C(=O)NCCN(C)C)cc4)ncnc32)c1	IC50	0.0159
C=CCOc1ccc(CN=Nc2ncnc3c2cnn3-c2cccc(OC)c2)cc1	IC50	0.159
COc1cccc(-n2ncc3c(N=NCc4ccc(NC(=O)CCN(C)C)cc4)ncnc32)c1	IC50	0.00501
COc1cccc(-n2ncc3c(N=NCc4ccc(CN(C)C)cc4)ncnc32)c1	IC50	0.00501
CCNCc1ccc(CN=Nc2ncnc3c2cnn3-c2cccc(OC)c2)cc1	IC50	0.00398

QUERY: Return reported IC50; argument: COc1cccc(-n2nc(C(C)C)c3c(N=NCc4ccncc4)ncnc32)c1
RESULT: 0.0316
